# experimentalDetails: NCI Yeast Anticancer Drug Screen. Data for the mlh1 rad18 strain (AID 175)
# runParameters: S. cerevisiae mlh1 rad18 strain growth inhibition; at 50.0 µM (retest, dose inferred, filed as 5.0); stronger effect = higher value
Compounds without any hit were thinned out: in the full panel of roughly 79,000, 15% have a hit.
Threshold check on growth inhibition: at or above 80% gives 1 (yes), strictly below gives 0 (no).

Example cases with answers are listed next.
Clc1nc2ccccc2nc1N1CCCCCC1: 1 (yes)
Oc1ccc(C(O)(c2ccccc2)c2ccccc2)c2ccccc12: 1 (yes)

IN: Is reported growth inhibition greater than or equal to 80% here: CC(C)N1C(=O)C=CC1=O
OUT: 0 (no)

IN: Is reported growth inhibition greater than or equal to 80% here: CC(=O)/C(=C\c1cccc(Cl)c1)C(=O)CCN(C)C
OUT: 0 (no)

IN: Is reported growth inhibition greater than or equal to 80% here: Cc1c2ccncc2cc2c1sc1ccncc12
OUT: 1 (yes)

Taken from PubChem BioAssay (NCI).
